Biological target: T1, alpha subunit of the human FcεRI receptor (IgE high affinity receptor), expressed on Chinese hamster ovary … (human, UniProt P12319 26-257)
T1 construct: whole, on cells; also called CHO FcεRI+ cells; FcεRIα
T1 sequence (looked up): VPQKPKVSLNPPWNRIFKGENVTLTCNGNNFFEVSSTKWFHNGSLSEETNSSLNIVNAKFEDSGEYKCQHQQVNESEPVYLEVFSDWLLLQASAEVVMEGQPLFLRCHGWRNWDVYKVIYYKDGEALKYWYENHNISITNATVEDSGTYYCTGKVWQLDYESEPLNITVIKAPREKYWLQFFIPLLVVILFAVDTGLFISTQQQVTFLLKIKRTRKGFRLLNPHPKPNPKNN
Test: inhibition of 125I-IgE binding to CHO cells expressing human FcεRI alpha; competitor IgE
Where no end group is shown, it is not given here. [ ]: non-standard residue; d: D form. hCys = N[C@@H](CCS)C(=O)O
So basically: is IC50 under 200 nM? Then true. Not under? Then false.

>  <Binder>
VQCPHFCYELDYELCPDKCYT-NH2 (not fully specified (bridges); cysteine pairing not given here) [IGE173]

>  <Group>
true

$$$$
>  <Binder>
VQCPHFCYELDYEADRLCPDVCYV-NH2 (disulfide (positions not given here); also: two disulfides, pairing not settled) [IGE188]

>  <Group>
false

$$$$
>  <Binder>
VQCPHFCYFGGAELCPDV[hCys]YV-NH2 (disulfide (positions not given here)) [IGE165]

>  <Group>
false

$$$$
>  <Binder>
Ac-VQCPHFCYELDYELCPDVCYV-NH2 (not fully specified (bridges); cysteine pairing not given here) [IGE179]

>  <Group>
false

$$$$
